target: actin.PsoS1; assay: ADP dissociation constant (KADP) by competitive inhibition of ATP-induced dissociation, psoas; format: binding, rabbit; conditions: Psoas S1, pH 7.0, 10°C; read-out: KADP
OUTCOME_MEASURE: pKd
Just the number, please; pKd means minus log10 of the concentration in mol/L.

Quick check: pKd on actin.PsoS1, item `Nc1ncnc2c1ncn2[C@@H]1O[C@H](COP(=O)(O)OP(=O)(O)O)[C@@H](O)[C@H]1O` ?
3.70

---

target: actin.MassS1 (Bos taurus, UniProt Q9BE39); construct: from tissue; host or cells: bovine masseter muscle (myosin); rabbit muscle (actin); test: ADP dissociation constant (KADP) by competitive inhibition of ATP-induced dissociation, masseter; format: binding, bovine; details: Masseter S1, pH 6.2, 30°C
OUTCOME_MEASURE: Kd (µM)
Write the number in µM without appending the unit.

Reported Kd for actin.MassS1 (Bos taurus, UniProt Q9BE39), given `Nc1ncnc2c1ncn2[C@@H]1O[C@H](COP(=O)(O)OP(=O)(O)O)[C@@H](O)[C@H]1O` ?
83.9

---

target: actin.PsoS1; test: ADP dissociation constant in the presence of phosphate (KADP+Pi) and calculated KPi app, psoas; type: binding, rabbit; conditions: Psoas S1, pH 6.2, 20°C, 30 mM Pi; read-out: KADP+Pi
OUTCOME_MEASURE: pKd
Units for pKd: none; it is -log10 of a concentration expressed in mol/L.

Which pKd value belongs to `Nc1ncnc2c1ncn2[C@@H]1O[C@H](COP(=O)(O)OP(=O)(O)O)[C@@H](O)[C@H]1O` ?
3.29

---

target: actin.MassS1 (Bos taurus, UniProt Q9BE39); construct: from tissue; host or cells: bovine masseter muscle (myosin); rabbit muscle (actin); test: ADP dissociation constant (KADP) by competitive inhibition of ATP-induced dissociation, masseter; format: binding, bovine; conditions: Masseter S1, pH 7.0, 30°C
OUTCOME_MEASURE: Kd (µM)
State the answer as a number, implicitly in µM.

Report Kd for `Nc1ncnc2c1ncn2[C@@H]1O[C@H](COP(=O)(O)OP(=O)(O)O)[C@@H](O)[C@H]1O` please.
56.2

---

molecular target: actin.PsoS1; assay: ADP dissociation constant in the presence of phosphate (KADP+Pi) and calculated KPi app, psoas; format: binding, rabbit; details: psoas, 30 mM Pi, 10–20°C, pH 7.0; read-out: apparent KADP in the presence of Pi
pKd: −log10 of the molar value.
OUTCOME_MEASURE: pKd

Param item = Nc1ncnc2c1ncn2[C@@H]1O[C@H](COP(=O)(O)OP(=O)(O)O)[C@@H](O)[C@H]1O [ADP] ; retrieve measured pKd.
~3.30

---

target: actin.PsoS1; assay: ADP dissociation constant (KADP) by competitive inhibition of ATP-induced dissociation, psoas; format: binding, rabbit; settings: Psoas S1, pH 7.0, 20°C; read-out: KADP
OUTCOME_MEASURE: pKd
Units for pKd: none; it is -log10 of a concentration expressed in mol/L.

What does the data say about its pKd? Entry: `Nc1ncnc2c1ncn2[C@@H]1O[C@H](COP(=O)(O)OP(=O)(O)O)[C@@H](O)[C@H]1O`
3.69

---

molecular target: actin.MassS1 (Bos taurus, UniProt Q9BE39); construct: from tissue; host or cells: bovine masseter muscle (myosin); rabbit muscle (actin); experiment: ADP dissociation constant in the presence of phosphate (KADP+Pi) and calculated KPi app, masseter; assay type: binding, bovine; conditions: Masseter S1, pH 7.0, 20°C, 15 mM Pi
OUTCOME_MEASURE: Kd (µM)
Just the number in µM, nothing appended.

Request the reported Kd associated with Nc1ncnc2c1ncn2[C@@H]1O[C@H](COP(=O)(O)OP(=O)(O)O)[C@@H](O)[C@H]1O [ADP]
44.4
